// IC50 lookup, one value per entry
target-system: binding between NRF2 and KEAP1 (Homo sapiens (Human), UniProt Q14145)
Sequence (Q14145 whole entry): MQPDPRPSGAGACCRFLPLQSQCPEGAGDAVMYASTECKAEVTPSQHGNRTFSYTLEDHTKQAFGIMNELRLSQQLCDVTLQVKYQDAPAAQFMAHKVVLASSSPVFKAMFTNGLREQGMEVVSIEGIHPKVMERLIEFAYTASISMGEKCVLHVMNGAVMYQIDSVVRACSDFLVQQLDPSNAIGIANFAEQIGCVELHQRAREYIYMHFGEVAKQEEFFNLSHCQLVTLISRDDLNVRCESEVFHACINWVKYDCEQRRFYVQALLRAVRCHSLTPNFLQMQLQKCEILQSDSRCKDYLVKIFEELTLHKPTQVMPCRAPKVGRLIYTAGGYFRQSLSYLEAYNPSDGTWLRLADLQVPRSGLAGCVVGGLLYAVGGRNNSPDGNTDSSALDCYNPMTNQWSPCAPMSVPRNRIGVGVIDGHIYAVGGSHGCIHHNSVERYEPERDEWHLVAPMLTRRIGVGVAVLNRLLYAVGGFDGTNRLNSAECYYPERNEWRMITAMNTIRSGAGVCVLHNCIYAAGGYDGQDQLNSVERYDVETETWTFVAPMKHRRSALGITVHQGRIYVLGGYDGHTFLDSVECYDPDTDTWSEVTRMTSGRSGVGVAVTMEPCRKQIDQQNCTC
test-details: Binding assay: inhibition of binding between NRF2 and KEAP1 by BRET (NanoLuc-NRF2 and KEAP1-HaloTag cell lysates)
test-conditions: Test Example 1-1; NRF2-KEAP1 BRET; N=2
Express your answer in nM, writing the number without its unit.

Known results for compounds:
INSERT INTO assay_data (compound, readout, measured) VALUES
  ('CC[C@@H]1CN(Cc2cc(C(c3cc(OC)c(C(C)=O)s3)C(C)(C)C(=O)O)ccc2C)S(=O)(=O)c2ccccc2O1 (stereo partly shown) [Compound 4]', 'IC50', 0.41),
  ('CC[C@@H]1CN(Cc2cc(C(c3cc(OC)c(C(C)=O)s3)C(C)C(=O)O)ccc2C)S(=O)(=O)c2cnccc2O1 (stereo partly shown) [Compound 51]', 'IC50', 0.41),
  ('CC[C@@H]1CN(Cc2cc(C(CC(=O)O)c3ccc(C(N)=O)s3)ccc2C)S(=O)(=O)c2ccccc2O1 (stereo partly shown) [Compound 23]', 'IC50', 0.39);

Note: attention shifts to another entry.
Requested field: IC50. Item: CC[C@@H]1CN(Cc2cc(C(c3ccc(C(C)=O)s3)C(C)(C)C(=O)O)ccc2C)S(=O)(=O)c2cnccc2O1 (stereo partly shown) [Compound 48] 0.39
